Target: S1P1 (Homo sapiens (Human), UniProt P21453)
Sequence (P21453 whole entry): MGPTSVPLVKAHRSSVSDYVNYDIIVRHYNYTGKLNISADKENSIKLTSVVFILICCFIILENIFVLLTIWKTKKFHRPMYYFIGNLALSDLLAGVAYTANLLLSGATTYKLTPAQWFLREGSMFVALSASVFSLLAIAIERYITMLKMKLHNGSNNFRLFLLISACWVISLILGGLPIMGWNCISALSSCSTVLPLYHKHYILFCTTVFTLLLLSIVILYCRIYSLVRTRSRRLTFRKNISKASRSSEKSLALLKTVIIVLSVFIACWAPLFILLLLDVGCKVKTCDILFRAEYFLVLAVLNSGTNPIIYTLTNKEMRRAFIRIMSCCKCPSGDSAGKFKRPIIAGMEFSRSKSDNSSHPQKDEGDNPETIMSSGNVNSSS
Assay: S1P1 agonist assay (Ec50 S1P1Ag)
Type: cell-based
Response field class: string, computed from recorded EC50 by ranges 0: < 10 nM; 1: ≥ 10 nM and < 80 nM; 2: ≥ 80 nM

| structureSmiles | testTarget | group |
| --- | --- | --- |
| CCOc1ccc(-c2nc(-c3ccc(CN(C)C)c(C)c3)no2)cc1OCC | S1P1 (Homo sapiens (Human), UniProt P21453) | 1 |
| CCOc1ccc(-c2nc(-c3cc4ccccc4cn3)no2)cc1OCC | S1P1 (Homo sapiens (Human), UniProt P21453) | 2 |
| Cc1cnccc1-c1noc(-c2ccc(C)c(C(F)(F)F)c2)n1 | S1P1 (Homo sapiens (Human), UniProt P21453) | 1 |
| CCOc1ccc(-c2nc(-c3cccc(CO)c3)no2)cc1OCC | S1P1 (Homo sapiens (Human), UniProt P21453) | 0 |
| CCOc1ccc(-c2nc(-c3cccc4[nH]cc(CNC)c34)no2)cc1OCC | S1P1 (Homo sapiens (Human), UniProt P21453) | 2 |
| CCOc1ccc(-c2nc(-c3ccc(CN4CCCC4)cc3C)no2)cc1OCC | S1P1 (Homo sapiens (Human), UniProt P21453) | 2 |
| COc1ccc(-c2nc(-c3ccncc3)no2)cc1OC1CCCC1 | S1P1 (Homo sapiens (Human), UniProt P21453) | 1 |
| CCOc1ccc(-c2nc(-c3ccc4cc[nH]c4c3)no2)cc1OCC | S1P1 (Homo sapiens (Human), UniProt P21453) | 0 |
| CCOc1ccc(-c2nc(-c3cccc(N)c3C)no2)cc1OCC | S1P1 (Homo sapiens (Human), UniProt P21453) | 1 |
| c1ccc(Cc2nc(-c3ccncc3)no2)cc1 | S1P1 (Homo sapiens (Human), UniProt P21453) | 2 |
| CCOc1ccc(-c2nc(-c3ccc4c(c3)NC(=O)C4)no2)cc1OCC | S1P1 (Homo sapiens (Human), UniProt P21453) | 0 |
| c1cc(-c2noc(-c3ccc(C4CCCCC4)cc3)n2)ccn1 | S1P1 (Homo sapiens (Human), UniProt P21453) | 2 |
| CCOc1ccc(-c2nc(-c3cccc(CN4CCCC4)c3C)no2)cc1OCC | S1P1 (Homo sapiens (Human), UniProt P21453) | 0 |

Each recorded value in this set is attributed to patent US10544136B2.
